IC50 overview
- Tested on: RAW 264.7 cells
- protocol-summary: AlamarBlue assay for cell viability (cytotoxicity)
- condition-notes: read-out: IC50 (cytotoxicity), RAW 264.7 macrophages, 24 h treatment, 6.25-100 µM tested

The examples below pair each entry with its known result.
>  <query-smiles>
CCCCc1c(OC)cc(/C(C)=C/C=C/C=C/C=C/c2[nH]ccc2Cl)oc1=O

>  <obs-value>
< 10 µM

$$$$
>  <query-smiles>
COc1cc(/C=C/C=C/C=C/C=C/c2ccccc2Cl)oc(=O)c1C

>  <obs-value>
> 100 µM

$$$$
>  <query-smiles>
COc1cc(/C=C/C=C/C=C/C=C/c2cccc(Cl)c2)oc(=O)c1C

>  <obs-value>
> 100 µM

$$$$
>  <query-smiles>
COc1cc(/C=C/C=C/C=C/C=C/c2sccc2Cl)oc(=O)c1

>  <obs-value>
> 100 µM

$$$$
>  <query-smiles>
COc1cc(/C=C/C=C/C=C/C=C/c2[nH]ccc2Cl)oc(=O)c1

>  <obs-value>
< 10 µM

$$$$

Recorded IC50 for CCCCc1c(OC)cc(/C=C/C=C/C=C/C=C/c2[nH]ccc2Cl)oc1=O , please? < 10 µM

Next: CC\C(=C/C=C/C=C/C=C/c1[nH]ccc1Cl)c1cc(OC)c(C)c(=O)o1 < 10 µM

Further, for COc1cc(/C(C)=C/C=C/C=C/C=C/c2[nH]ccc2Cl)oc(=O)c1 ? < 10 µM

Try this compound next: Cc1c(O)cc(/C=C/C=C/C=C/C=C/c2[nH]ccc2Cl)oc1=O > 100 µM

Next compound up: COc1cc(/C=C/C=C/C=C/C=C/c2sccc2Cl)oc(=O)c1C > 100 µM

Param item: O=c1cc(O)cc(/C=C/C=C/C=C/C=C/c2[nH]ccc2Cl)o1 > 100 µM

Same thing, different compound: COc1cc(/C=C/C=C/C=C/C=C/c2c(Cl)ccn2S(C)(=O)=O)oc(=O)c1C > 100 µM

----------
- protocol-summary: in vitro
- condition-notes: mouse
pIC50: −log10 of the molar value.
Known pIC50 of a selection of compounds

What does the record list as pIC50 for COc1cc(/C=C/C=C/C=C/C=C/c2[nH]ccc2Cl)oc(=O)c1C ? > 5.00

Another compound to look at: COc1cc(/C(C)=C/C=C/C=C/C=C/c2[nH]ccc2Cl)oc(=O)c1C [compound 1e, 12E-isorumbrin] > 5.00
